System: human growth hormone (532) promoter
PROCEDURE_DETAILS: High-throughput luciferase reporter assay, human Growth Hormone promoter (Screen III)
Type: cell-based
TEST_CONTEXT: Screen III activators; 532 cells; 6 hours
ENDPOINT_NAME: FOLD INDUCTION RELATIVE TO SOLVENT CONTROL, hGH (fold)
Report the figure in fold without appending any unit label.

>  <MOLECULE>
CCOC(=O)c1c[nH]c(=S)[nH]c1=O [compound 1740]

>  <ASSAY_TARGET>
human growth hormone (532) promoter

>  <UNIT_ABBREVIATION>
fold

>  <MEASURED>
17.77

$$$$
>  <MOLECULE>
CON(C)C(=O)Nc1ccc(Cl)cc1 [compound 552]

>  <ASSAY_TARGET>
human growth hormone (532) promoter

>  <UNIT_ABBREVIATION>
fold

>  <MEASURED>
5.31

$$$$
>  <MOLECULE>
CC(=O)n1ccnc1 [Chemical #58, 1-Acetylimidazole]

>  <ASSAY_TARGET>
human growth hormone (532) promoter

>  <UNIT_ABBREVIATION>
fold

>  <MEASURED>
0.17

$$$$
>  <MOLECULE>
N=c1cc2oc3cc(N)ccc3nc-2c2ccccc12 [compound 1776]

>  <ASSAY_TARGET>
human growth hormone (532) promoter

>  <UNIT_ABBREVIATION>
fold

>  <MEASURED>
0.15

$$$$

Exercise: Look up FOLD INDUCTION RELATIVE TO SOLVENT CONTROL, hGH of N[C@@H](CCCCNC(=O)OCc1ccccc1)C(=O)O [compound 1747] and report it.
Solution: 6.16

Exercise: Look up FOLD INDUCTION RELATIVE TO SOLVENT CONTROL, hGH of COc1cc2oc(=O)cc(CBr)c2cc1OC [compound 2064] and report it.
Solution: 1.10

Exercise: Look up FOLD INDUCTION RELATIVE TO SOLVENT CONTROL, hGH of Clc1ccc(Sc2cc(Cl)c(Cl)cc2Cl)cc1 [compound 828] and report it.
Solution: 1.34

Exercise: Look up FOLD INDUCTION RELATIVE TO SOLVENT CONTROL, hGH of O=c1[nH]c(=O)n([C@H]2C[C@H](O)[C@@H](CO)O2)cc1Br [compound 543] and report it.
Solution: 0.72

Exercise: Look up FOLD INDUCTION RELATIVE TO SOLVENT CONTROL, hGH of CN(C)c1ccc(C(=C2C=CC(=[N+](C)C)C=C2)c2ccc(N(C)C)cc2)cc1 [Chemical #1780, Crystal Violet] and report it.
Solution: 0.38

Exercise: Look up FOLD INDUCTION RELATIVE TO SOLVENT CONTROL, hGH of c1ccc(-c2cccc(-c3ccccn3)n2)nc1 [compound 453] and report it.
Solution: 0.58

----------
System: MMTV (M10) promoter
PROCEDURE_DETAILS: High-throughput luciferase reporter assay, MMTV promoter (Screen III)
Type: cell-based, mouse
TEST_CONTEXT: Screen III activators; M10 cells; 6 hours
Lab note: anything with FOLD INDUCTION RELATIVE TO SOLVENT CONTROL, MMTV below 1 fold is marked 1.0; values at 1 fold or higher are marked 0.0.

>  <MOLECULE>
CON(C)C(=O)Nc1ccc(Cl)cc1

>  <ASSAY_TARGET>
MMTV (M10) promoter

>  <CLASSIFICATION>
1.0

$$$$
>  <MOLECULE>
Cc1ccc(C(=O)c2ccccc2N)cc1

>  <ASSAY_TARGET>
MMTV (M10) promoter

>  <CLASSIFICATION>
0.0

$$$$
>  <MOLECULE>
Clc1ccc(Sc2cc(Cl)c(Cl)cc2Cl)cc1

>  <ASSAY_TARGET>
MMTV (M10) promoter

>  <CLASSIFICATION>
0.0

$$$$
>  <MOLECULE>
CN(C)c1ccc(C(=C2C=CC(=[N+](C)C)C=C2)c2ccc(N(C)C)cc2)cc1

>  <ASSAY_TARGET>
MMTV (M10) promoter

>  <CLASSIFICATION>
0.0

$$$$
>  <MOLECULE>
CC1(C)O[C@@H]2C[C@H]3[C@@H]4CCC5=CC(=O)C=C[C@]5(C)[C@@]4(F)[C@@H](O)C[C@]3(C)[C@]2(C(=O)CO)O1

>  <ASSAY_TARGET>
MMTV (M10) promoter

>  <CLASSIFICATION>
0.0

$$$$
>  <MOLECULE>
Nc1ccccc1SSc1ccccc1N

>  <ASSAY_TARGET>
MMTV (M10) promoter

>  <CLASSIFICATION>
0.0

$$$$

Exercise: Determine if `CCOc1ccc2nc3cc(N)ccc3c(N)c2c1` shows FOLD INDUCTION RELATIVE TO SOLVENT CONTROL, MMTV strictly lower than 1 fold.
Solution: 1.0

Exercise: Determine if `Nc1c2ccccc2nc2ccccc12` shows FOLD INDUCTION RELATIVE TO SOLVENT CONTROL, MMTV strictly lower than 1 fold.
Solution: 1.0

Exercise: Determine if `Nc1nc(N)nc(N)n1` shows FOLD INDUCTION RELATIVE TO SOLVENT CONTROL, MMTV strictly lower than 1 fold.
Solution: 0.0

Exercise: Determine if `O=c1ccc2[n+]([O-])c3ccc(O)cc3oc-2c1` shows FOLD INDUCTION RELATIVE TO SOLVENT CONTROL, MMTV strictly lower than 1 fold.
Solution: 1.0

Exercise: Determine if `Nc1ccc2c(c1)C(=O)c1ccccc1-2` shows FOLD INDUCTION RELATIVE TO SOLVENT CONTROL, MMTV strictly lower than 1 fold.
Solution: 0.0

Exercise: Determine if `COc1c(F)cc(Br)cc1[N+](=O)[O-]` shows FOLD INDUCTION RELATIVE TO SOLVENT CONTROL, MMTV strictly lower than 1 fold.
Solution: 1.0

Exercise: Determine if `ClCCCCCBr` shows FOLD INDUCTION RELATIVE TO SOLVENT CONTROL, MMTV strictly lower than 1 fold.
Solution: 0.0

Exercise: Determine if CCN(CC)CCCC(C)Nc1c2ccc(Cl)cc2nc2ccc(OC)cc12 (stereo not shown) shows FOLD INDUCTION RELATIVE TO SOLVENT CONTROL, MMTV strictly lower than 1 fold.
Solution: 1.0

----------
System: human G-CSF (G21) promoter
PROCEDURE_DETAILS: High-throughput luciferase reporter assay, G-CSF promoter (Screen III)
TEST_CONTEXT: Screen III activators; G21 cells; 6 hours
We begin with a simple list: items and their reported FOLD INDUCTION RELATIVE TO SOLVENT CONTROL, GCSF.

>  <COMPOUND>
COc1ccc(CC(=O)O)cc1OC

>  <MEASURED>
0.85 fold

$$$$
>  <COMPOUND>
O=C(O)C1CCC1

>  <MEASURED>
1.05 fold

$$$$
>  <COMPOUND>
Nc1nc2nc[nH]c2c(=S)[nH]1

>  <MEASURED>
3.59 fold

$$$$
>  <COMPOUND>
Nc1c(Cl)c(Cl)nc(C(=O)O)c1Cl

>  <MEASURED>
0.23 fold

$$$$
>  <COMPOUND>
Nc1nc(=O)n([C@H]2C[C@H](O)[C@@H](CO)O2)cc1Br

>  <MEASURED>
6.28 fold

$$$$
>  <COMPOUND>
O=C(O)c1ccc2c3c(ncnc13)-c1ccccc1C2=O

>  <MEASURED>
4.12 fold

$$$$
>  <COMPOUND>
Nc1ccc(S(=O)(=O)O)c2cccc(O)c12

>  <MEASURED>
0.07 fold

$$$$
>  <COMPOUND>
O=c1c(O)c(-c2ccc(O)c(O)c2)oc2cc(O)ccc12

>  <MEASURED>
0.14 fold

$$$$
>  <COMPOUND>
NCc1ccc(S(N)(=O)=O)cc1

>  <MEASURED>
8.94 fold

$$$$
>  <COMPOUND>
Clc1ccc(Sc2cc(Cl)c(Cl)cc2Cl)cc1

>  <MEASURED>
1.47 fold

$$$$

Exercise: Look up FOLD INDUCTION RELATIVE TO SOLVENT CONTROL, GCSF of `CC1(C)O[C@@H]2C[C@H]3[C@@H]4CCC5=CC(=O)C=C[C@]5(C)[C@@]4(F)[C@@H](O)C[C@]3(C)[C@]2(C(=O)CO)O1` and report it.
Solution: 0.75 fold

Exercise: Look up FOLD INDUCTION RELATIVE TO SOLVENT CONTROL, GCSF of OCC1CC2C3CC(CO)C(C3)C2C1 (stereo not drawn) and report it.
Solution: 0.36 fold

Exercise: Look up FOLD INDUCTION RELATIVE TO SOLVENT CONTROL, GCSF of `CCOC(=O)N1C(=O)c2ccccc2C1=O` and report it.
Solution: 4.77 fold

Exercise: Look up FOLD INDUCTION RELATIVE TO SOLVENT CONTROL, GCSF of `CCOc1ccc2nc3cc(N)ccc3c(N)c2c1` and report it.
Solution: 0.01 fold

Exercise: Look up FOLD INDUCTION RELATIVE TO SOLVENT CONTROL, GCSF of `c1ccc(-c2cccc(-c3ccccn3)n2)nc1` and report it.
Solution: 0.79 fold

Exercise: Look up FOLD INDUCTION RELATIVE TO SOLVENT CONTROL, GCSF of `COc1cc2oc(=O)cc(CBr)c2cc1OC` and report it.
Solution: 0.82 fold

Exercise: Look up FOLD INDUCTION RELATIVE TO SOLVENT CONTROL, GCSF of `Cc1ccc(N)c(S(=O)(=O)O)c1` and report it.
Solution: 6.37 fold

Exercise: Look up FOLD INDUCTION RELATIVE TO SOLVENT CONTROL, GCSF of `CN(C)c1ccc2cc3ccc(N(C)C)cc3nc2c1` and report it.
Solution: 5.87 fold
